For each entry below, report its EC50 value.
System: HCV replicon cells
Assay: HCV replicon FRET / luciferase assay (96-well plates)
Format: cell-based
Conditions: Hepatitis C virus, Table 1a; HCV replicon; read-out: EC50

Recorded results for 3 compounds are shown here.
I have this compound here, CNC(=O)c1c(-c2ccc(F)cc2)oc2ccc(-c3ccccn3)cc12 , and I need its recorded EC50.
250 to 1000 nM

I have this compound here, CNC(=O)c1c(-c2ccc(F)cc2)oc2ccc(-c3cccc(C(=O)Nc4ccccc4O)c3)cc12 , and I need its recorded EC50.
< 250 nM

Need EC50, item CNC(=O)c1c(-c2ccc(F)cc2)oc2cc(N)c(-c3cccc(C(=O)NC4(c5ccccc5)CC4)c3)cc12
< 250 nM

Your task in this section: give EC50 for each listed record.
1. CNC(=O)c1c(-c2ccc(F)cc2)oc2ccc(-c3cc(OC)ncc3Cl)cc12
2. CCOC(=O)CC(C)NC(=O)c1cccc(-c2ccc3oc(-c4ccc(F)cc4)c(C(=O)NC)c3c2)c1 (stereo not shown)
3. CNC(=O)c1c(-c2ccc(F)cc2)oc2ccc(-c3cc(C(=O)NCC(C)C)ccc3OC)cc12
4. CNC(=O)c1c(-c2ccc(F)cc2)oc2ccc(-c3cc(C(=O)CCC(C)C)ccc3OCCN(C)C)cc12
5. CNC(=O)c1c(-c2ccc(F)cc2)oc2ccc(-c3ccc(C(=O)NCCOC)cc3)cc12

1. > 1230 nM
2. 250 to 1000 nM
3. < 250 nM
4. < 250 nM
5. > 10000 nM
